Read-out: Glutamate-cysteine ligase regulatory (GCLM), GCLM (gene 2730)
assayExplanation: LTEA_HepaRG_GCLM: Life Technologies and Expression Analysis (LTEA) Assay for Glutamate-cysteine ligase regulatory (GCLM) using HepaRG (AID 2283500)
conditionSummary: mRNA level, 48 h; actives raise or lower the signal
Active and inactive are the calls of the source. The calls were made as follows: active = hit-call score of the fitted dose curve at least 0.9, where 1 is the maximum; inactive = score below 0.9.
Please answer using one outcome listed in yes (1) for active, no (0) for inactive

- compound: "CC1(c2ccc(Oc3ccccc3)cc2)OC(=O)N(Nc2ccccc2)C1=O (stereo not drawn)"
  classAssignment: "yes (1)"
- compound: "COP(=S)(OC)Oc1ccc(SC)c(C)c1"
  classAssignment: "yes (1)"
- compound: "ClC1C(Cl)C(Cl)C(Cl)C(Cl)C1Cl (stereo not drawn)"
  classAssignment: "no (0)"
- compound: "CC(C)(C)C(O)C(Oc1ccc(Cl)cc1)n1cncn1 (stereo not drawn)"
  classAssignment: "no (0)"
- compound: "O=S1OCC2C(CO1)C1(Cl)C(Cl)=C(Cl)C2(Cl)C1(Cl)Cl (stereo not drawn)"
  classAssignment: "yes (1)"
- compound: "N#CN"
  classAssignment: "no (0)"
- compound: "Cc1[nH]c(=O)n(C(C)(C)C)c(=O)c1Cl"
  classAssignment: "no (0)"
- compound: "CCC(C)(NC(=O)c1cc(Cl)c(C)c(Cl)c1)C(=O)CCl (stereo not drawn)"
  classAssignment: "no (0)"

## Input Please let me know the test result on file for CC(C)OC(=O)Nc1cccc(Cl)c1 .
## Output no (0)

## Input OCCOc1ccccc1 ?
## Output no (0)

## Input Another compound to look at: COc1nn(CSP(=S)(OC)OC)c(=O)s1
## Output no (0)

## Input Then this compound: O=[N+]([O-])/N=C1\NCCN1Cc1ccc(Cl)nc1
## Output no (0)

## Input Quick one: Oc1ccc(Cl)cc1Cc1ccccc1
## Output no (0)
